- Target Or System: Short transient receptor potential channel 6 (Mus musculus) (UniProt Q61143)
- Sequence (Q61143 whole entry, looked up): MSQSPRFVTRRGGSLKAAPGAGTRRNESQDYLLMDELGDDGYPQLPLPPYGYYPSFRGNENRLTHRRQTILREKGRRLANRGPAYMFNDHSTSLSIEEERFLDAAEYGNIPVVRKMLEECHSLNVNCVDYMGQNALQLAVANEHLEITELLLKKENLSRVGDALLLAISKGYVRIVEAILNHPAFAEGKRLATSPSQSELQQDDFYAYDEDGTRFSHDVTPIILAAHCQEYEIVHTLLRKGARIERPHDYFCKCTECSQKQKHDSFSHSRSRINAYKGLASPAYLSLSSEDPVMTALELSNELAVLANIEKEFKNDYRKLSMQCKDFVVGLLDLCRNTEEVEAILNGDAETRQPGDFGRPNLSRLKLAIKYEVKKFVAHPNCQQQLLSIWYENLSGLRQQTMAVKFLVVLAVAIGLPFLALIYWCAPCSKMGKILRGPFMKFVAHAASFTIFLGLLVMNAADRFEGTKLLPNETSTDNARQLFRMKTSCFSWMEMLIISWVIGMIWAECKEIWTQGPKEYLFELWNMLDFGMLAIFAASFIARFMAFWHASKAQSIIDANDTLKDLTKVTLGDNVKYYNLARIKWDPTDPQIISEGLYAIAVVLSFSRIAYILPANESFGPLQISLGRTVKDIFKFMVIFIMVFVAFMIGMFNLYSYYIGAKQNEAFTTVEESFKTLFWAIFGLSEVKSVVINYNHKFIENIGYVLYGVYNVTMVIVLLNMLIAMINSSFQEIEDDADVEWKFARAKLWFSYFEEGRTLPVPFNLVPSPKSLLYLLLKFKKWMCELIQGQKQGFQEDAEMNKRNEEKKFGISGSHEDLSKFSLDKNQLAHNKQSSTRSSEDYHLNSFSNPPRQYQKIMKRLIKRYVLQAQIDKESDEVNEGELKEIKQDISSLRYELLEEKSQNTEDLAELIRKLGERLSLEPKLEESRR
- Assay Details: activation of mouse TRPC6 channel, confirmation, selectivity assay for TRPC4 activator project, cell-based, HEK293, membrane potential dye, duplicate (AID 434950);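 on activation: 0% = buffer only wells and 100% = acetylcholine maximal-effect wells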
- Test Parameters: HEK293 TRPC6, membrane potential fluorescence, at 10 µM
Calls of active or inactive are those of the source.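 How the source made its calls: active means membrane potential signal rise above negative control mean plus 3 SD in both duplicates, also active in the earlier TRPC4 screen; inactive means the rest.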
Labels: label 1 for active, label 0 for inactive

{"Compound": "Cc1c(CN2CCC(n3nccc3NC(=O)C3CC3)CC2)[nH]c2ccccc12", "Target Or System": "Short transient receptor potential channel 6 (Mus musculus) (UniProt Q61143)", "Label Class": "label 1"}
{"Compound": "Cc1ccccc1N(CC(=O)N/N=C/c1ccc(F)cc1)C(=O)c1ccccc1", "Target Or System": "Short transient receptor potential channel 6 (Mus musculus) (UniProt Q61143)", "Label Class": "label 0"}
{"Compound": "OC(CNC1CCCc2ccccc21)COc1ccc2ccccc2c1 (configuration not stated)", "Target Or System": "Short transient receptor potential channel 6 (Mus musculus) (UniProt Q61143)", "Label Class": "label 1"}
{"Compound": "CCOc1ccc2ncc(C(=O)c3ccc(OC)cc3)c(N3CCN(CC)CC3)c2c1", "Target Or System": "Short transient receptor potential channel 6 (Mus musculus) (UniProt Q61143)", "Label Class": "label 0"}
{"Compound": "CC[C@@H](C(=O)[C@@H](C)[C@@H](O)[C@H](C)CCc1ccc(C)c(O)c1C(=O)O)[C@H]1O[C@](CC)([C@H]2CC[C@](O)(CC)[C@H](C)O2)C[C@@H]1C", "Target Or System": "Short transient receptor potential channel 6 (Mus musculus) (UniProt Q61143)", "Label Class": "label 1"}
{"Compound": "CCCc1c(O)nc(SCCN(CCC)CCC)[nH]c1=O", "Target Or System": "Short transient receptor potential channel 6 (Mus musculus) (UniProt Q61143)", "Label Class": "label 0"}
{"Compound": "CCN1CCN(c2c(S(=O)(=O)c3ccc(C)c(C)c3)cnc3ccc(F)cc23)CC1", "Target Or System": "Short transient receptor potential channel 6 (Mus musculus) (UniProt Q61143)", "Label Class": "label 1"}
{"Compound": "NC(=O)C1CCCN(CC(O)COCc2ccc(Cl)cc2)C1 (configuration not stated)", "Target Or System": "Short transient receptor potential channel 6 (Mus musculus) (UniProt Q61143)", "Label Class": "label 1"}
{"Compound": "CCOC(=O)C1(CC2CC2)CCN(Cc2ccc(O)c(Cl)c2)CC1", "Target Or System": "Short transient receptor potential channel 6 (Mus musculus) (UniProt Q61143)", "Label Class": "label 1"}
{"Compound": "CCCc1ccc(OCC(=O)NNC(=S)NC(=O)c2ccco2)cc1", "Target Or System": "Short transient receptor potential channel 6 (Mus musculus) (UniProt Q61143)", "Label Class": "label 0"}
{"Compound": "COc1ccc(-n2cc(CNCCc3ncc(C)[nH]3)c(-c3ccccc3Cl)n2)cc1", "Target Or System": "Short transient receptor potential channel 6 (Mus musculus) (UniProt Q61143)", "Label Class": "label 1"}
{"Compound": "Cc1ccn2cc(CCNC(=O)C3CC=CCC3C(=O)O)nc2c1 (configuration not stated)", "Target Or System": "Short transient receptor potential channel 6 (Mus musculus) (UniProt Q61143)", "Label Class": "label 0"}
{"Compound": "Cc1sc2nc(CSc3ccccc3)nc(NCCN(C)C)c2c1C", "Target Or System": "Short transient receptor potential channel 6 (Mus musculus) (UniProt Q61143)", "Label Class": "label 0"}
{"Compound": "COc1ccc(C(CNC(=O)CN2C(=O)NC3(CCCC3)C2=O)N(C)C)cc1 (configuration not stated)", "Target Or System": "Short transient receptor potential channel 6 (Mus musculus) (UniProt Q61143)", "Label Class": "label 0"}
{"Compound": "COc1ccc(-c2cc(C#N)nc(N3CCNCC3)n2)cc1", "Target Or System": "Short transient receptor potential channel 6 (Mus musculus) (UniProt Q61143)", "Label Class": "label 0"}
{"Compound": "CCn1cc(CN2CCC(n3nccc3NC(=O)CCCc3ccccc3)CC2)cn1", "Target Or System": "Short transient receptor potential channel 6 (Mus musculus) (UniProt Q61143)", "Label Class": "label 1"}
{"Compound": "C/C(=N/NC(=O)c1ccc(Cn2cccn2)o1)c1cccc(NC(=O)c2ccncc2)c1", "Target Or System": "Short transient receptor potential channel 6 (Mus musculus) (UniProt Q61143)", "Label Class": "label 1"}
{"Compound": "OCC1(CC2CCCCO2)CCN(Cc2nc3ccccc3[nH]2)CC1 (configuration not stated)", "Target Or System": "Short transient receptor potential channel 6 (Mus musculus) (UniProt Q61143)", "Label Class": "label 1"}
{"Compound": "COc1ccc(C(CNCC(=O)Nc2ccccc2F)N(C)C)cc1 (configuration not stated)", "Target Or System": "Short transient receptor potential channel 6 (Mus musculus) (UniProt Q61143)", "Label Class": "label 1"}
{"Compound": "CN(C)CCN(C(=O)c1cccc2ccccc12)c1nc2cc3c(cc2s1)OCO3", "Target Or System": "Short transient receptor potential channel 6 (Mus musculus) (UniProt Q61143)", "Label Class": "label 0"}
{"Compound": "O=C(Nc1nnc(-c2ccccc2Cl)o1)c1nc2ccccc2s1", "Target Or System": "Short transient receptor potential channel 6 (Mus musculus) (UniProt Q61143)", "Label Class": "label 0"}
{"Compound": "CN(CCc1nc2ccc(Cl)cc2[nH]1)Cc1nc(CC2CC2)no1", "Target Or System": "Short transient receptor potential channel 6 (Mus musculus) (UniProt Q61143)", "Label Class": "label 0"}

Data provenance: PubChem BioAssay
